Data provenance: ChEMBL document CHEMBL1154198

- Measurement protocol: ST_JUDE: Cytotoxicity using luciferase to measure ATP as an indicator of the viability of human Burkitt''s lymphoma lymphoblast cells (Raji)
- Type: toxicity, cell-based
pEC50: −log10 of the molar value.
Form field: pEC50 (one value per entry).

Example cases with answers are listed next.
# input Fill blank: measured pEC50 of the molecule `CCOc1ccc(N(C(C)=O)C2=C(N(C)C)C(=O)c3ccccc3C2=O)cc1` is ____.
# output 6.45

# input Fill blank: measured pEC50 of the molecule CO/C(O)=C1\C(C)=NC2=C(C(=O)CC(c3ccc(OC)c(OC)c3)C2)C1c1ccc(F)cc1 (stereo unspecified) is ____.
# output < 4.33

# input Fill blank: measured pEC50 of the molecule `CCOC(=O)C1(Cc2ccccc2)CCN(Cc2cccc(OC)c2O)CC1` is ____.
# output < 4.43

# input Fill blank: measured pEC50 of the molecule COc1cc(OC)c(NC(=O)C2c3ccccc3C(=O)N(CC(C)C)C2c2cccs2)cc1Cl (stereo unspecified) is ____.
# output < 4.35

***
# input Fill blank: measured pEC50 of the molecule COc1ccc(NC(=O)C2c3ccccc3C(=O)N(CC(C)C)C2c2cccs2)cc1OC (stereo unspecified) is ____.
# output < 4.36

# input Fill blank: measured pEC50 of the molecule COc1ccc(NC(=O)C2c3ccccc3C(=O)N(C3CCCC3)C2c2cccs2)cc1 (stereo unspecified) is ____.
# output < 4.39

# input Fill blank: measured pEC50 of the molecule `CCCCOc1ccc(N(C(C)=O)C2=C(N3CCCCC3)C(=O)c3ccccc3C2=O)cc1` is ____.
# output 5.16

# input Fill blank: measured pEC50 of the molecule `CCOc1ccc2nc3cc(N)ccc3c(N)c2c1` is ____.
# output < 4.49

# input Fill blank: measured pEC50 of the molecule `Cc1cc(Nc2ccc(Br)c(C)c2)n2nc(C)nc2n1` is ____.
# output < 4.42

* * *

- System: Plasmodium falciparum
- Measurement protocol: ST_JUDE: Plasmodium falciparum 3D7 EC50 (uM) as measured by SYBR green dye
- Format: functional, organism-based
Form field: pEC50 (one value per entry).
Keep in mind that pEC50 stands for -log10 of concentration in molar terms.

# input API: value(readout= pEC50, system= Plasmodium falciparum, query= CC(C)CN1C(=O)c2ccccc2C(C(=O)Nc2cccc(C#N)c2)C1c1cccs1 (centres undefined) )
# output 7.23

# input API: value(readout= pEC50, system= Plasmodium falciparum, query= COc1cccc(C(=O)NC(NC(=S)Nc2ccccc2Cl)C(Cl)(Cl)Cl)c1 (centres undefined) )
# output 5.57

# input API: value(readout= pEC50, system= Plasmodium falciparum, query= Oc1ccc(Br)c2c1NC(c1ccc(Cl)cc1)C1CC=CC21 (centres undefined) )
# output 5.41

# input API: value(readout= pEC50, system= Plasmodium falciparum, query= CCCO/C(O)=C1\C(C)=NC2=C(C(=O)CC(c3ccc(OC)c(OC)c3)C2)C1c1ccccc1F (centres undefined) )
# output 7.30

***
# input API: value(readout= pEC50, system= Plasmodium falciparum, query= `CCOc1ccc2nc3cc(N)ccc3c(N)c2c1` )
# output 5.95

# input API: value(readout= pEC50, system= Plasmodium falciparum, query= `Cc1cccc(C(=O)ONC(=N)Cc2cccc3ccccc23)c1` )
# output 5.33

# input API: value(readout= pEC50, system= Plasmodium falciparum, query= Cc1ccnc(NC(c2ccc([N+](=O)[O-])cc2)c2ccc3cccnc3c2O)c1 (centres undefined) )
# output 5.74

# input API: value(readout= pEC50, system= Plasmodium falciparum, query= `CCN(CC)CCOC(=O)c1ccc(NC(=O)c2cc3cc4cc(OC)ccc4nc3s2)cc1` )
# output 5.77

# input API: value(readout= pEC50, system= Plasmodium falciparum, query= `COc1ccccc1Nc1nc(NCc2ccccc2)c2ccccc2n1` )
# output 5.40

* * *

- Test system: Trypanosoma brucei
- Measurement protocol: ST_JUDE: Cytotoxicity using luciferase to measure ATP as an indicator of the viability of Trypanosoma brucei
- Assay type: functional, organism-based
Recorded endpoint: pEC50
Keep in mind that pEC50 stands for -log10 of concentration in molar terms.

Example cases with answers are listed next.
# input Fill blank: measured pEC50 of the compound CCCCN(CCCC)CC(O)COc1ccccc1C(=O)Nc1ccccc1 (stereo unspecified) is ____.
# output 4.67

# input Fill blank: measured pEC50 of the compound `COc1ccc(Nc2cc(C)nc(Nc3ccc(NS(=O)(=O)c4ccc(OC)cc4)cc3)n2)cc1` is ____.
# output 5.24

# input Fill blank: measured pEC50 of the compound `CC(C)(C)c1cc(/N=N/C(=O)c2ccncc2)cc(C(C)(C)C)c1O` is ____.
# output 6.00

Now for the compound whose pEC50 we want.
# input Fill blank: measured pEC50 of the compound Cc1ccc(C(O)(CNCc2ccccc2)c2ccc(Br)cc2)cc1 (stereo unspecified) is ____.
# output 5.02

* * *

Form field: EC50 (one value per entry).
- Measurement protocol: ST_JUDE: Cytotoxicity using luciferase to measure ATP as an indicator of the viability of human Burkitt''s lymphoma lymphoblast cells (Raji)
- Type: toxicity, cell-based

# input Fill blank: measured EC50 of the compound CCOC(=O)c1cccc(NC(=O)CC2C(=O)N(c3ccc(F)cc3)C(=O)N2CCC(C)C)c1 (stereo unspecified) is ____.
# output > 43.4 µM

***
# input Fill blank: measured EC50 of the compound Cc1ccc(C2CC(C(F)(F)F)n3nc(C(=O)N4CCN(C(c5ccccc5)c5ccccc5)CC4)cc3N2)cc1 (stereo unspecified) is ____.
# output > 42.7 µM

# input Fill blank: measured EC50 of the compound COCCO/C(O)=C1\C(C)=NC2=C(C(=O)CC(c3ccc(OC)c(OC)c3)C2)C1c1ccccc1F (stereo unspecified) is ____.
# output > 39.9 µM

# input Fill blank: measured EC50 of the compound `COC(=O)C1=CNC=C(C(=O)OC)C1c1ccc(Cl)c(Cl)c1` is ____.
# output > 45.8 µM

# input Fill blank: measured EC50 of the compound CCCO/C(O)=C1\C(C)=NC2=C(C(=O)CC(c3ccc(OC)c(OC)c3)C2)C1c1ccccc1OC (stereo unspecified) is ____.
# output > 47 µM

# input Fill blank: measured EC50 of the compound CC(CNC(=O)c1cn(C2CCCCC2)cc(C(=O)NC(C)(C)C)c1=O)c1ccccc1 (stereo unspecified) is ____.
# output > 52.8 µM

* * *

- Tested on: Plasmodium falciparum
- Measurement protocol: ST_JUDE: Cytotoxicity against Plasmodium falciparum V1/S
- Assay type: functional, organism-based
Recorded endpoint: EC50

Example cases with answers are listed next.
# input Fill blank: measured EC50 of the compound `Cc1oc2c(c1C(=O)NCCC(C)C)C(=O)c1ccccc1C2=O` is ____.
# output > 10.9 µM

# input Fill blank: measured EC50 of the compound `CCN(CC)CCCOC(=O)c1c(C)oc2cc3c(C(=O)OCCCN(CC)CC)c(C)oc3cc12` is ____.
# output > 9.98 µM

# input Fill blank: measured EC50 of the compound `Cc1ccc(N2C(N)=NC(N)=NC2(C)C)cc1` is ____.
# output > 8.97 µM

Now for the compound whose EC50 we want.
# input Fill blank: measured EC50 of the compound `C#CC[n+]1ccn2c(C)ccc2c1CC` is ____.
# output > 12.8 µM

* * *

- Tested on: Plasmodium falciparum
- Measurement protocol: ST_JUDE: Cytotoxicity against Plasmodium falciparum K1
- Assay type: functional, organism-based
Group membership follows EC50 per the scheme I (below 0.3 µM), II (0.3 µM to below 0.7 µM), III (0.7 µM or more)

# input Just checking, what class would you give `Cc1ccccc1/N=C1\C=C(NS(=O)(=O)c2ccc(F)cc2)c2ccccc2C1=O` here?
# output I

# input Just checking, what class would you give `CCOC(=O)C1(Cc2ccc(Cl)cc2)CCN(Cc2ccccc2O)CC1` here?
# output I

# input Just checking, what class would you give `CCN(CC)CCCOC(=O)c1c(C)oc2cc3c(C(=O)OCCCN(CC)CC)c(C)oc3cc12` here?
# output III

# input Just checking, what class would you give `CCN1/C(=C/c2cccc[n+]2C)C=Cc2cc(C)ccc21` here?
# output III

# input Just checking, what class would you give `Cc1ccc(N2C(N)=NC(N)=NC2(C)C)cc1` here?
# output II

***
# input Just checking, what class would you give `CCOc1ccc(N(C(C)=O)C2=C(N(C)C)C(=O)c3ccccc3C2=O)cc1` here?
# output I

# input Just checking, what class would you give `CCOC(=O)C1(Cc2cccc(C(F)(F)F)c2)CCN(Cc2ccccc2O)CC1` here?
# output II

# input Just checking, what class would you give `Cc1ccc2c(c1)C=C/C(=C\c1sc3ccccc3[n+]1C)N2C` here?
# output I

# input Just checking, what class would you give CCOC(=O)C1=C(C)N=c2s/c(=C\c3cc(Cl)ccc3O)c(=O)n2C1c1ccc(N(C)C)cc1 (configuration not stated) here?
# output II

# input Just checking, what class would you give CCOc1cc(C2CC(=O)NC3=C2C(=O)CC(c2cc(OC)ccc2OC)C3)ccc1O (configuration not stated) here?
# output III

# input Just checking, what class would you give OC(CNC1CCCCC1)Cn1c2ccc(Cl)cc2c2cc(Cl)ccc21 (configuration not stated) here?
# output II

# input Just checking, what class would you give `Cc1ccc2c(c1)N(C)/C(=C/c1cccc[n+]1C)S2` here?
# output II

# input Just checking, what class would you give `CN1/C(=C/c2cccc[n+]2C)Sc2ccccc21` here?
# output II
